B1: LOC100129726 (parent)
chain: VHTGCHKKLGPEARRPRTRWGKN

Variants of: B1
Assay: protein stability index of a GFP-peptide fusion (GPS, HEK-293T) (PSI 1-6); higher = more stable;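 also: lentivirally expressed fusions sorted by FACS into six bins by GFP to DsRed ratio, PSI derived from sequencing read proportions per bin multiplied by bin number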
Details: c terminus: native
Please mark Criterion met if the recorded protein stability index is equal to or greater than 2, and Criterion not met if it falls below.

Identify whether the reported protein stability index of the following variant is 2 or greater: `H6K` Criterion not met

Decide: protein stability index of `G21Q` >= 2? Criterion met

Answer whether protein stability index of `R17L` is greater than or equal to 2. Criterion not met

Please check the record `G21H` and state if its protein stability index is at or above 2. Criterion met

Tell me whether protein stability index is at least 2 here: `T18H` Criterion not met

Please tell me: is the variant `R17E` at or over 2 in terms of protein stability index? Criterion met

Record `G10W` ; criterion: protein stability index no lower than 2. Met? Criterion met

Check this variant for protein stability index at or above 2: `R17Y` Criterion met

Decide: protein stability index of `N23T` >= 2? Criterion met

Check if protein stability index >= 2 (inclusive). Item: `G10M` Criterion not met

Tell me whether protein stability index is at least 2 here: `L9C` Criterion met

Please check the record `G10R` and state if its protein stability index is at or above 2. Criterion met
